experiment_notes: logP determination by HPLC (EEC-Directive 79/831 Annex V. A8, gradient method)
Format: physicochemical
experimental_parameters: gradient method, acetonitrile/0.1% aqueous phosphoric acid
Please respond with t when measured logP is strictly beneath 3, and with f in all other cases.

Look over these answered cases.
CC(C)C(C)Nc1c(-c2ncc(C(F)(F)F)cc2F)c(Cl)nc2ncnn12 (stereo not shown) | f
CC(C)C(C)Nc1c(-c2ncccc2C(F)(F)F)c(Cl)nc2ncnn12 (stereo not shown) | t
CC(C)C(C)Nc1c(-c2ncncc2Cl)c(Cl)nc2ncnn12 (stereo not shown) | t
C[C@@H](Nc1c(-c2ncncc2Cl)c(Cl)nc2ncnn12)C(F)(F)F | t
C=C(C)CN(CC)c1c(-c2ncc(C(F)(F)F)cc2F)c(Cl)nc2ncnn12 | f

Now consider the entry below.
Incoming: Consider the compound `CC(C)CNc1c(-c2ncc(C(F)(F)F)cc2F)c(Cl)nc2ncnn12` . Is its logP strictly less than 3?
Outgoing: t
